Can you tell me melting point for the items I'm about to list?

[in] Given O=C(Nc1ccc(CCCCn2ccnn2)cc1)c1coc(C=Cc2ccc(C(F)(F)F)cc2)n1 , state its recorded melting point.
[out] 183 to 185 °C

[in] Given [O-][S+](c1ccc(/C=C/c2nc(CNc3ccc(CCCCn4ccnn4)cc3)co2)cc1)C(F)(F)F (centres unmarked) , state its recorded melting point.
[out] 121 to 124 °C

[in] Given FC1(F)Oc2ccc(C=Cc3nc(CNc4ccc(CCCCn5ccnn5)cc4)co3)cc2O1 , state its recorded melting point.
[out] 102 to 104 °C

[in] Given FC(F)(F)Oc1ccc(C=Cc2nc(CNc3ccc(CCCCn4ccnn4)cc3)co2)cc1 , state its recorded melting point.
[out] 103 to 105 °C

[in] Given Clc1ccc(C=Cc2nc(CNc3ccc(CCCCn4ccnn4)cc3)co2)cc1Cl , state its recorded melting point.
[out] 76.8 to 78.8 °C

[in] Given FC(F)(F)Sc1ccc(C=Cc2nc(CNc3ccc(CCCCn4ccnn4)cc3)co2)cc1 , state its recorded melting point.
[out] 76 to 78 °C

[in] Given CN(Cc1coc(C=Cc2ccc(C(F)(F)F)cc2)n1)c1ccc(OCCCn2ccnn2)cc1 , state its recorded melting point.
[out] 137 to 138 °C

[in] Given FC(F)(F)c1ccc(C=Cc2nc(CNc3ccc(CCCCn4ccnn4)cc3)co2)cc1 , state its recorded melting point.
[out] 113 to 115 °C
